Attribute: log10 of Ki
Biological target: human μ-opiate receptor (Homo sapiens)
Sequence (P35372 whole entry): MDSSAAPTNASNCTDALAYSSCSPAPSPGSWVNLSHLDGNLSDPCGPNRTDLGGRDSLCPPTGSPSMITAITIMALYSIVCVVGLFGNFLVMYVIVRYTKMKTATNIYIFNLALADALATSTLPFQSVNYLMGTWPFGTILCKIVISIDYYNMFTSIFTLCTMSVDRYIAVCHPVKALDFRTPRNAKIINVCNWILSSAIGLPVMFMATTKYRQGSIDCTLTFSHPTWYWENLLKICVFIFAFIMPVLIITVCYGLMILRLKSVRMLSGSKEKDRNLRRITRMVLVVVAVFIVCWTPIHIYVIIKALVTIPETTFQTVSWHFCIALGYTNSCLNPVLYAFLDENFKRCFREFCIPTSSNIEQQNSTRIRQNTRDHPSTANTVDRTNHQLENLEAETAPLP
Experiment: Affinity for the human μ-opiate receptor ([3H]-naloxone displacement, SPA, CHO-K1 membrane preparation)
Assay type: binding
Conditions: read-out: μ-Opioid receptor, Ki
Structures can show the parent of a compound that is named as a salt.
property-measured: log10 of Ki (log10 of the value in nM)

1) CN(C)C(c1cccc(F)c1)C1CCC(CNC(=O)c2csc3ccccc23)CC1 (centres unmarked) [compound 314] ... 0.62
2) CN(C)C(c1ccc(Cl)cc1)C1CCC(CCNC(=O)c2cc(F)cc(F)c2)CC1 (centres unmarked) [compound 434] ... 1.38
3) CN(C)C(c1ccccc1)C1CCC(NC(=O)c2cccc(Cl)c2)CC1 (centres unmarked) [compound 187] ... 0.93
4) Cc1ccccc1C(=O)NCC1CCC(C(c2cccc(F)c2)N(C)C)CC1 (centres unmarked) [compound 384] ... 1.58
5) CC(=O)N(CCCc1ccccc1)C1CCC(C(c2ccccc2)N(C)C)CC1 (centres unmarked) [compound 95, hydrochloride] ... 0.40
6) CCOC(=O)CCC1CCC(C(c2cccc(F)c2)N(C)C)CC1 (centres unmarked) [compound 139] ... 1.64
7) CCOC(=O)C=CC1CCC(C(c2ccc(F)cc2)N(C)C)CC1 (centres unmarked) [compound 135] ... 2.58
8) Cc1nc(-c2ccccc2)sc1C(=O)NC1CCC(C(c2ccccc2)N(C)C)CC1 (centres unmarked) [compound 238] ... 1.58
